biological target: red kidney bean PAP (rkbPAP) (Phaseolus vulgaris, UniProt P80366); construct: The rkbPAP was purified from red kidney bean according to the method described by Beck et al; from tissue; host or cells: red kidney bean seeds (Phaseolus vulgaris), local market; assay: rkbPAP inhibition assay with p-NPP as substrate; format: biochemical; conditions: rkbPAP, pH 4.9, 25 °C, p-NPP substrate; read-out: IC50
Sequence (P80366 23-459): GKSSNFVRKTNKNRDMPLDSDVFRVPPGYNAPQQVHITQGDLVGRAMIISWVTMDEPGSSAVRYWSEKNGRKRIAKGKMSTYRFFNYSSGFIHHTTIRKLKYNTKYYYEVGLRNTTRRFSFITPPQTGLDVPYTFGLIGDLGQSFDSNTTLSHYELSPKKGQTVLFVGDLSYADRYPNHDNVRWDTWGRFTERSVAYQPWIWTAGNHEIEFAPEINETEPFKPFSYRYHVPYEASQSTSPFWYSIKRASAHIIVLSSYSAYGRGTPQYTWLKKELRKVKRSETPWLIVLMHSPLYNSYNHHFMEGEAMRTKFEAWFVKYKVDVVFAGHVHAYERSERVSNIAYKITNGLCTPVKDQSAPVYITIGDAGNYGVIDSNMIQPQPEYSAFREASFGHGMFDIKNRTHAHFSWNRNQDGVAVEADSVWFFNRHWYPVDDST
result.type: IC50 (µM)
Answers are plain numbers, in µM.

Sample answers from the record:
molecule | IC50 / µM
O=C(O)C(O)C(O)C(=O)O (stereo not drawn) [Tartrate, reference compound] | 3310
CCCCCCCCCCCCS(=O)(=O)NC(c1ccc(OC)cc1)P(=O)(O)O (stereo not drawn) | 421

// moving on: another record for IC50
Data request: I am curious: what IC50 value has been reported for CCCCCCCCCCCCCCCCS(=O)(=O)NC(c1ccc(OC)cc1)P(=O)(O)O (stereo not drawn) ?
Data returned: 13
